tested on: HOP-92 NSCLC; experiment: NCI tumour cell line growth inhibition, 48 h
quantity: TGI

Would you please look over these solved cases?
molecule | system | TGI
ClCCN1CCOC1=Nc1ccc2c(c1)CCCC2 | HOP-92 NSCLC | 30.7 µM
O=C(CCl)NC(Cc1ccc(F)cc1)C(=O)O (stereo unspecified) | HOP-92 NSCLC | > 100 µM
CC(=O)OC[C@@H]1[C@H]2CC[C@]3(C)[C@@H](OC(C)=O)CC[C@H]3[C@@H]2CC[C@H]1C1(C)SCCS1 | HOP-92 NSCLC | > 25 µM
Oc1ccc2oc3c(O)c4ccccc4cc3c2c1 | HOP-92 NSCLC | 41.6 µM
O=P(NC12CC3CC(CC(C3)C1)C2)(N1CC1)N1CC1 | HOP-92 NSCLC | > 100 µM
CCOC(=O)c1c2c(n(Cc3ccccc3)c1C)-c1ccccc1C(=O)C2=O | HOP-92 NSCLC | 21.6 µM

Please indicate recorded TGI of CC(=O)OCC(=O)O[C@@H]1C[C@]2(C(C)C)O[C@@]1(C)[C@@H]1CC[C@@H](C)[C@H]1[C@@H]2OC(=O)/C=C/c1ccccc1 measured with HOP-92 NSCLC.
22.9 µM

Look up and report measured TGI (HOP-92 NSCLC) for the following molecule: Oc1ccc(O)c(-c2cc(-c3ccccc3)nn2-c2ccccc2)c1
> 100 µM

Quote HOP-92 NSCLC TGI for entry CN[C@@H](C)[C@@H](N)c1ccccc1 .
> 100 µM
